Molecular target: T1, ARHGEF11, O15085
T1 sequence (O15085 42-136, limits assumed, looked up): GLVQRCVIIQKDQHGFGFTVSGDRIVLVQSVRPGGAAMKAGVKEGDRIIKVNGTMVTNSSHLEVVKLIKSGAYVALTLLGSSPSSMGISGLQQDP
Experiment: holdup assay
Design: key: below the threshold = too weak to quantify, mostly under pKd 3.1 to 4
Conditions: plain residues with an end cap or a label only (N-terminal biotin on a linker: ahx)
metric: pKd

- AKPQPVDSWV [ARVCF, O00192]: below the threshold
- ADENEQVSAV [RAPGEF6, Q8TEU7]: 4.06
- PKMKLNETSF [SHKBP1, Q8TBC3]: below the threshold
- SAPATLSSRA [PDLIM2, Q96JY6]: below the threshold
- VNENQKEYFF [CNTNAP4, Q9C0A0]: below the threshold
- HSATSVHTSV [MTMR1, Q13613]: 3.75
